experiment: qHTS Assay for NPC1 Promoter Activators; further: nearly all actives have a fitted effect of over 60% in size;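 on activation: reporter is driven by a mutant NPC1 promoter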
setup_conditions: Huh7 NPC1 promoter luciferase reporter, 24 h; series mostly up to 9.22 µM
Out of some 320,000 compounds screened, about 7,600 (2.4%) were called active. Another 3% or so got no clear call; they are omitted. The call rests on the fitted dose curve; in most records, active means well fitted activation curve with a large enough effect; inconclusive means small, poorly fitted or top-dose-only effect; inactive means no such curve, though single readings can be large or run the other way. The full list was thinned out, with actives kept by preference.
Just give me one of these, please: active, inactive

INSERT INTO measurements (compound, label_value) VALUES
  ('O=C(Nc1cc(C(F)(F)F)ccc1Cl)C(=O)N1CCCCC1', 'inactive');

Exercise: Record lookup: outcome of this test for CCn1nc(C(=O)NNC(=O)C2CSC3(C)CCC(=O)N23)c2ccccc2c1=O (stereo unspecified) ?
Solution: inactive

Exercise: Record lookup: outcome of this test for CCCNS(=O)(=O)c1ccc(CCC(=O)NCc2cccnc2)cc1 ?
Solution: inactive

Exercise: Record lookup: outcome of this test for Cc1occc1-c1nnc(SCC(=O)NC2CCCCC2)o1 ?
Solution: inactive

Exercise: Record lookup: outcome of this test for COc1cc(C(C)=O)ccc1OC(C)C(=O)Nc1ccc(S(=O)(=O)N2CCCC2)cc1 (stereo unspecified) ?
Solution: inactive

Exercise: Record lookup: outcome of this test for O=C(Nc1cc(C(F)(F)F)ccc1Cl)c1cc(C2CC2)on1 ?
Solution: inactive

Exercise: Record lookup: outcome of this test for O=C(CN(c1cc(C(F)(F)F)ccc1Cl)S(=O)(=O)c1ccccc1)NCc1cccnc1 ?
Solution: inactive

Exercise: Record lookup: outcome of this test for CC(C)(CNC(=O)CNC(=O)C1CCCCC1)N1CCOCC1 ?
Solution: inactive

Exercise: Record lookup: outcome of this test for CC(C)N(Cc1nnc(-c2ccccc2Br)o1)C(=O)c1cc(Cl)nc2ccccc12 ?
Solution: inactive

Exercise: Record lookup: outcome of this test for Cc1csc(=O)n1CCC(=O)OCC(=O)NNC(=O)c1ccc(Br)cc1 ?
Solution: inactive

Exercise: Record lookup: outcome of this test for Cc1cnc(C(=O)OCC(=O)N2CCc3ccccc32)cn1 ?
Solution: inactive

Exercise: Record lookup: outcome of this test for O=C(Nc1cc(C(F)(F)F)ccc1Cl)c1cc2nc3c(c(C(F)(F)F)n2n1)CCCC3 ?
Solution: active

Exercise: Record lookup: outcome of this test for Cc1cccc(NC(=O)COc2ccc(Br)cc2C)n1 ?
Solution: active

Exercise: Record lookup: outcome of this test for CCOC(=O)C1=C(c2ccccc2)O/C(=C(/C(=O)OC)C(F)(F)F)S1 ?
Solution: inactive

Exercise: Record lookup: outcome of this test for COC(=O)c1ccc(C23CC4(C2)[C@H](CN(Cc2cccnc2)[C@@H]4c2ccccc2)C3c2ccc(Cl)nc2)cc1 (stereo partly specified) ?
Solution: inactive

Exercise: Record lookup: outcome of this test for COc1ccc2nc(NC3=NCN(CC4CCCO4)CN3)nc(C)c2c1 (stereo unspecified) ?
Solution: inactive

Exercise: Record lookup: outcome of this test for CC(=O)c1c(C)[nH]c(C(=O)OCC(=O)Nc2c(C)n(C)n(-c3ccccc3)c2=O)c1C ?
Solution: inactive

Exercise: Record lookup: outcome of this test for CC(C)(C)OC(=O)N[C@H](C(=O)OC(C)(C)C)c1ccc(Br)cc1 ?
Solution: inactive

Exercise: Record lookup: outcome of this test for CCN(CC)S(=O)(=O)c1ccc(C)c(NC(=O)COc2ccc(Br)cc2Cl)c1 ?
Solution: inactive

Exercise: Record lookup: outcome of this test for COc1ccc(OC)c(/C=C/C(=O)c2ccc3c(c2)OCO3)c1 ?
Solution: inactive

Exercise: Record lookup: outcome of this test for O=C1C=C(c2cccc(Cl)c2)C[C@@H](c2ccc(F)cc2)C1 ?
Solution: inactive
